Below, each entry is listed with its recorded log10(K obs x10e2).
species on record: Sus scrofa; test: Pseudo first order rate constant to release model amine drug after esterase catalyzed hydrolysis at an enzyme concentration of 1 unit/mL
ENDPOINT LABEL: log10(K obs x10e2) (log10 of the value in min⁻¹)

CC(=O)Oc1cc(C)cc(C)c1/C=C\C(=O)N(C)Cc1ccccc1 :: 1.04
CC(=O)Oc1ccccc1/C=C\C(=O)N(C)Cc1ccccc1 :: 0.33
CCN(CC)C(=O)/C=C\c1ccccc1OC(C)=O :: -0.43
CCN(CC)C(=O)/C=C\c1c(C)ccc(C)c1OC(C)=O :: 0.79
CC(=O)Oc1c(C)ccc(C)c1/C=C\C(=O)N(C)Cc1ccccc1 :: 1.16
CCN(CC)C(=O)/C=C\c1c(C)cc(C)cc1OC(C)=O :: 0.57
